Value source: PubChem BioAssay AID2060611

tested on: 628569-122-R-J1-PDC complex spheroid viability; assay: Anticancer human tumor 628569-122-R-J1-PDC patient-derived head and neck squamous carcinoma cell line growth inhibition [CLK]; details: second compound 10 µM; first compound 0.0316 µM; stronger effect = lower value;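 also: spheroids exposed to agents for seven days before readout; 100% = DMSO vehicle control viability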
Measured viability, T/C of individual entries
Kindly answer with a numeric value in %, unit omitted.

Solved entries (count: 5):
compound	recorded.result
CC1(C)CCC(CN2CCN(c3ccc(C(=O)NS(=O)(=O)c4ccc(NCC5CCOCC5)c([N+](=O)[O-])c4)c(Oc4cnc5[nH]ccc5c4)c3)CC2)=C(c2ccc(Cl)cc2)C1 + CN1CCN(c2cc(C(=O)Nc3cc4cc(-c5cnn(C)c5)ccc4cn3)ccn2)CC1	7.98
O=c1[nH]cc(F)c(=O)[nH]1 + CNC(=O)c1ccc(Nc2nc(OC3CCCC3)c3c(-c4ccc5nc(C)oc5c4)c[nH]c3n2)c(OC)c1	45.4
CCN1CCN(Cc2ccc(Nc3ncc(F)c(-c4cc(F)c5nc(C)n(C(C)C)c5c4)n3)nc2)CC1 + CN1CCN(c2cc(C(=O)Nc3cc4cc(-c5cnn(C)c5)ccc4cn3)ccn2)CC1	3.61
Cn1ncnc1[C@H]1c2n[nH]c(=O)c3cc(F)cc(c23)N[C@@H]1c1ccc(F)cc1 + CNC(=O)c1ccc(Nc2nc(OC3CCCC3)c3c(-c4ccc5nc(C)oc5c4)c[nH]c3n2)c(OC)c1	38
CC1(C)CCC(CN2CCN(c3ccc(C(=O)NS(=O)(=O)c4ccc(NCC5CCOCC5)c([N+](=O)[O-])c4)c(Oc4cnc5[nH]ccc5c4)c3)CC2)=C(c2ccc(Cl)cc2)C1 + CNC(=O)c1ccc(Nc2nc(OC3CCCC3)c3c(-c4ccc5nc(C)oc5c4)c[nH]c3n2)c(OC)c1	59.9

**Q:** Please look up its viability, T/C: CC(=O)O[C@H]1C(=O)[C@@]2(C)[C@H]([C@H](OC(=O)c3ccccc3)[C@]3(O)C[C@H](OC(=O)[C@H](O)[C@@H](NC(=O)c4ccccc4)c4ccccc4)C(C)=C1C3(C)C)[C@]1(OC(C)=O)CO[C@@H]1C[C@@H]2O + CNC(=O)c1ccc(Nc2nc(OC3CCCC3)c3c(-c4ccc5nc(C)oc5c4)c[nH]c3n2)c(OC)c1
**A:** 41.2

**Q:** Please answer likewise for Cn1ncnc1[C@H]1c2n[nH]c(=O)c3cc(F)cc(c23)N[C@@H]1c1ccc(F)cc1 + CN1CCN(c2cc(C(=O)Nc3cc4cc(-c5cnn(C)c5)ccc4cn3)ccn2)CC1
**A:** 4.57

**Q:** Please answer likewise for CC1COCCN1c1cc(C2(S(C)(=N)=O)CC2)nc(-c2ccnc3[nH]ccc23)n1 (stereo not given) + CN1CCN(c2cc(C(=O)Nc3cc4cc(-c5cnn(C)c5)ccc4cn3)ccn2)CC1
**A:** 4.43

**Q:** Please answer likewise for CCc1c2c(nc3ccc(O)cc13)-c1cc3c(c(=O)n1C2)COC(=O)[C@]3(O)CC + CNC(=O)c1ccc(Nc2nc(OC3CCCC3)c3c(-c4ccc5nc(C)oc5c4)c[nH]c3n2)c(OC)c1
**A:** 37.1

**Q:** Please answer likewise for Nc1ccn(C2OC(CO)C(O)C2(F)F)c(=O)n1 (stereo not given) + CN1CCN(c2cc(C(=O)Nc3cc4cc(-c5cnn(C)c5)ccc4cn3)ccn2)CC1
**A:** 4.52
